# systemTested: CCR2 receptor (Homo sapiens)
# Construct: expressed in transfected cells
# Sequence (P41597 whole entry): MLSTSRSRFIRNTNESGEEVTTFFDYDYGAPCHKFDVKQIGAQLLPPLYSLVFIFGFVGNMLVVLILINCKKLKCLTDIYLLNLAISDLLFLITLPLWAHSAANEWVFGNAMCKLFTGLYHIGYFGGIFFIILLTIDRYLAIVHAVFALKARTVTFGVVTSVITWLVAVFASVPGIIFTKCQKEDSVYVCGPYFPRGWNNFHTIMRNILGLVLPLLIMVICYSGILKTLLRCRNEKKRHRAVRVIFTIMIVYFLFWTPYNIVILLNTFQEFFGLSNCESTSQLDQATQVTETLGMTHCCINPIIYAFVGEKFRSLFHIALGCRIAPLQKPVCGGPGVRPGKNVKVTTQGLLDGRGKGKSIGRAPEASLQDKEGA
# testName: Calcium activity assay on FLIPR Tetra in HEK-Gqi5 cells stably expressing CCR2
# Type: cell-based
Label 1 (yes) when CCR2 % ANTAGONISM is strictly below 60%; otherwise label 0 (no).

Would you please look over these solved cases?
>>> print(df.to_string())
                                   molecule                  systemtested  assignedclass
0  O=C1CCc2cc(NS(=O)(=O)c3cc4ccccc4o3)c(S(=O)(=O)Cc3ccccc3)cc21  CCR2 receptor (Homo sapiens)        1 (yes)
1  O=S(=O)(Nc1cc(Cl)ccc1[S+]([O-])Cc1ccccc1)c1ccc(Cl)c(C(F)(F)F)c1 (stereo not shown)  CCR2 receptor (Homo sapiens)         0 (no)
2  O=C(NCC[N+]1([O-])CCCC1)c1ccc(CSc2ccc(Cl)cc2NS(=O)(=O)c2ccc(Cl)c(C(F)(F)F)c2)cc1  CCR2 receptor (Homo sapiens)        1 (yes)
3  CCN(C)C(=O)CCSc1ccc(Cl)cc1NS(=O)(=O)c1ccc(Cl)cc1F  CCR2 receptor (Homo sapiens)        1 (yes)

Consider the additional molecule presented here.
Exam item: Consider the molecule O=C(O)c1ccccc1CSc1ccc(Cl)cc1NS(=O)(=O)c1ccc(Cl)c(C(F)(F)F)c1 . Is its CCR2 % ANTAGONISM strictly less than 60%?
Marked response: 0 (no)

Data provenance is patent US8822530B2.
